study_target: human AspH (His6-AspH315–758) (Homo sapiens, UniProt Q12797)
Construct: N-Terminally His6-tagged human AspH315–758 (His6-AspH315–758) was produced in Escherichia coli BL21 (DE3) cells; made in house; host or cells: Escherichia coli BL21 (DE3), pET-28a(+) vector
Sequence (Q12797 315-758): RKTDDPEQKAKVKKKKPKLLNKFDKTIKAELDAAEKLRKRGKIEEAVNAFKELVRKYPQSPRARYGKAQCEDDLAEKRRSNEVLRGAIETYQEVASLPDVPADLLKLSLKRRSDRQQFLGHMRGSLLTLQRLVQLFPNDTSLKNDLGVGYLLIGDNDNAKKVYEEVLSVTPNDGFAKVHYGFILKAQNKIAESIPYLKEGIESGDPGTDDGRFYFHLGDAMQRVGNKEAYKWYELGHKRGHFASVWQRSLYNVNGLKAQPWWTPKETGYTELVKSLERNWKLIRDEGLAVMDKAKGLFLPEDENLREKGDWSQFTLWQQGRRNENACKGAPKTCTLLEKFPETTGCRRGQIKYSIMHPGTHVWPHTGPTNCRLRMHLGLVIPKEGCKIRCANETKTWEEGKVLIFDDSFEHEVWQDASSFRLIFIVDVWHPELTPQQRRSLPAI
protocol_details: SPE-MS AspH inhibition assay (hFX-CP101-119 substrate hydroxylation)
Format: biochemical
condition_notes: AspH-inhibitor screening, Plate 1-duplicate
quantity_measured: Plate 1-duplicate (% inhibition) (%)

Completed entries (count: 2):
C=CC[C@@H]1/C=C(\C)C[C@H](C)C[C@H](OC)[C@H]2O[C@@](O)(C(=O)C(=O)N3CCCC[C@H]3C(=O)O[C@H](/C(C)=C/[C@@H]3CC[C@@H](O)[C@H](OC)C3)[C@H](C)[C@@H](O)CC1=O)[C@H](C)C[C@@H]2OC.O ... -2.68
Cc1ccc(C(=O)Nc2ccc(CN3CCN(C)CC3)c(C(F)(F)F)c2)cc1C#Cc1cnc2cccnn12 ... -35.27

A: Oc1ccc2c(c1)CC[C@H](c1ccccc1)[C@@H]2c1ccc(OCCN2CCCC2)cc1
B: C#Cc1cccc(Nc2ncnc3cc(OC)c(OCCCCCCC(=O)NO)cc23)c1
C: CC(C)(C)c1nc(-c2cccc(NS(=O)(=O)c3c(F)cccc3F)c2F)c(-c2ccnc(N)n2)s1.CS(=O)(=O)O [Dabrafenib Mesylate]
D: C[C@H]1C[C@@H]2[C@H]([C@@H](O)C[C@@]3(C)[C@H]2CC[C@]3(O)C(=O)CO)[C@@]2(C)C=CC(=O)C=C12
Ask: Arrange the 4 molecules from largest to smallest Plate 1-duplicate (% inhibition). List the labels in the requested order.
Result: B, C, D, A
(B: 72.15%, C: 12.13%, D: 6.32%, A: -1.73%)
